Record form. Attribute: melting point. Fill in for each entry.

Record excerpt, results attached:
>>> result("Nc1ccc2oc(-c3ccccc3)nc2c1")
"155 to 157 °C"
>>> result("Cc1ccc(Cl)c(Nc2ccccc2-c2n[nH]c(=S)[nH]2)c1Cl")
"300 to 305 °C"
>>> result("CCCCOc1nc(N)nc2c1ncn2C1C=CC(CO)C1 (stereo not given)")
"122 to 123 °C"
>>> result("COC(=O)c1ccc(C)nc1Oc1nc(OC)cc(OC)n1")
"99 to 103 °C"
>>> result("Cc1ccccc1Oc1cccc(CC(=O)O)c1O")
"116 to 117 °C"
>>> result("CCc1cc2c(s1)-n1c(Cl)nnc1CN=C2c1ccccc1Cl")
"133 to 135 °C"
>>> result("CC(C)(COCc1cccc(Oc2ccccc2)c1)c1ccccc1C(=O)O")
"98.5 to 102 °C"
>>> result("COCCNc1nccc(Oc2ccc(NC(=O)c3cc(F)cc(N4CCCCC4)c3)c3ccccc23)n1")
"87 to 88 °C"
>>> result("NCCNC(=O)Cc1ccsc1")
"89.7 to 92.1 °C"

Alright, here's another molecule for you.
Query: Output measured melting point for this item: CC(C)NC(Nc1cc(C(F)(F)F)cc(C(F)(F)F)c1)=C(C#N)S(=O)(=O)c1ccc(Cl)cc1
Result: 197 to 198 °C

====

Assignment: determine reported melting point for the given compounds.

// worked examples, melting point included
>>> result("OC1CSC(Oc2cccc(-c3ccccn3)c2)C(O)C1O (stereo unspecified)")
"138 to 139 °C"
>>> result("NNc1ccc2c(=O)[nH]ccc2c1")
"270 °C"
>>> result("CCOC(=O)C1=C(C)NC(N=CN(C)C)=C(C(=O)OCC)C1c1ccccc1 (stereo unspecified)")
"131 °C"
>>> result("CC(C)Cn1c(=O)[nH]c2ncc(-c3ccc(O)cc3)nc21")
"290 to 291 °C"

// batch mode: one melting point value per listed entry
1. CCCCCCCCCCCCCCOc1ccc(N)cc1
2. C=Cc1c(C(=O)O)cccc1[N+](=O)[O-]
3. CCOC(=O)C(C#N)=C1CCN(c2ccc(OC)cc2)CC1
4. O=[N+]([O-])c1ccc(Oc2ccc3c(c2)OCC(c2ccccc2)O3)nc1 (stereo unspecified)
5. COc1ccc(C(=O)Nc2ccc(F)cc2)cc1Nc1cccc(C(F)(F)F)c1

Result:
1. 65 to 68 °C
2. 166 to 167 °C
3. 87 °C
4. 163 to 170 °C
5. 163 to 164 °C

Go through the items and report each one's melting point.
1. Cc1c(C(=O)O)sc2cncc(Oc3ccc(Cl)cc3)c12
2. CCCCCCCCCCCCCCCCNc1ccc(C(=O)N(C)C)cc1

Result:
315 to 317 °C
70 to 72 °C

====

quantity_kind: melting point

Here is how some molecules turned out for melting point.
>>> result("Oc1c(Cl)c(Cl)c(-c2c(Cl)c(Cl)c(O)c(Cl)c2Cl)c(Cl)c1Cl")
"94 to 96 °C"
>>> result("CC1(C)CC(=O)C(C(=S)Nc2ccc(Cl)c(Cl)c2)C(=O)C1")
"113 to 116 °C"
>>> result("CC(=O)N1Cc2cccc3[nH]cc(c23)C1")
"205 to 206 °C"

Here are 6 molecules. What values of melting point were reported for them?
1. NC1=NS(=O)N=C1NCCCOc1cc(CN2CCCCC2)ccn1 (stereo unspecified)
2. O=C(Cc1ccc(C(F)(F)F)cc1)c1ccc(F)cc1
3. O=c1n(C(c2ccccc2)(c2ccccc2)c2ccccc2)nc2ccc(Cl)nn12
4. OC1CSC(Oc2cccc(-c3cccnc3)n2)C(O)C1O (stereo unspecified)
5. NS(=O)(=O)C1(c2cnn(CC(F)=C(F)F)c(=O)c2-c2ccc(F)cc2)C=CC=CC1 (stereo unspecified)
6. COC(=O)c1c(-c2ccccc2)nn2ccc3c(c12)C(CC#N)CC3 (stereo unspecified)

Result:
1. 154 to 158 °C
2. 93 to 95 °C
3. 246 to 247 °C
4. 179 °C
5. 173 to 175 °C
6. 214 to 215 °C

The following molecules each have a reported value; give each one's melting point.
1. O=C(CNc1c(C(=O)O)[nH]c2cc(F)ccc12)c1ccccc1
2. Cc1nnc(CNC(=O)[C@H](Cc2ccccc2)NC(=O)OCc2ccccc2)n1-c1ccc(Cl)cc1C(=O)c1ccccc1
3. CCCCOc1c(C=O)n(C)c(=O)c2cc(Cl)c(Cl)cc12
4. NC(=S)NCc1ccccc1Cl

Result:
142 to 143 °C
84 to 88 °C
114 to 115 °C
120 to 122 °C

Batch request: melting point for each of the following molecules.
1. O=c1[nH]c2cc(Cl)cc([N+](=O)[O-])c2[nH]c1=O
2. O=C(CCCCCCC(=O)Oc1cc(O)cc(O)c1)Oc1cc(O)cc(O)c1

Result:
1. 315 to 317 °C
2. 185 to 188 °C

Please supply melting point for each of the following items, keeping them in order.
1. COc1ccc(Sc2c(C(=O)O)[nH]c3cc(C)ccc23)cc1
2. COc1ccc(C(=O)N2CCC(Nc3nccc(-c4c(-c5ccc(F)cc5)nc5occn45)n3)CC2)cc1
3. NC(=O)Cc1c(N)cc(Br)cc1OCc1ccccc1
4. COCCc1ccc(OCC(O)CO)cc1 (stereo unspecified)
5. Cc1cn(C)c2c1N(C(=O)C(C)N1CCCC1)c1ccccc1NC2=O (stereo unspecified)
6. CC(C)n1c(=O)nc(-c2ccc3ccccc3c2)c2cc3c(cc21)OCO3

Result:
1: 190 to 192 °C; 2: 196 to 197 °C; 3: 185 °C; 4: 25 °C; 5: 213 to 215 °C; 6: 213 to 215 °C

====

Provide the reported melting point of each item.

// worked examples, melting point included
>>> result("CCCCCCOc1ccc(CCC(=O)O)cc1")
"70 to 72 °C"
>>> result("CCCCCN(CCC12CC3CC(CC(C3)C1)C2)C(=O)NCc1ccncc1")
"96.5 to 108 °C"
>>> result("CCOCc1nc2c(N)nc3ccccc3c2n1CCNC(=O)CCCCC1SCC2NC(=O)NC21 (stereo unspecified)")
"171 to 175 °C"

Below are some compounds; for each one, tell me its melting point.
1. CC(C)(C)OC(=O)C=C1CN=C(c2ccccc2F)c2cc(Cl)ccc2N1
2. Cn1cc(-c2cccc(C(F)(F)F)c2)c(=O)n1-c1cccc(C(F)(F)F)c1
3. CC(=O)OCC(=O)C1CCC2C3CCC4CC(O)C(N5CCOC(C)(C)C5)CC4(C)C3C(=O)CC12C (stereo unspecified)

Result:
158 to 160 °C
110 to 111 °C
158 to 160 °C

====

quantity_kind: melting point

Worked cases, answers included:
>>> result("N#CCC(=O)c1cc(F)c(Cl)cc1Cl")
"98 to 99 °C"
>>> result("CC(C)OC(=O)C1(c2onc(-c3ccc(O)cc3)c2-c2ccccc2)CC1")
"175 °C"

# batch: return melting point for each of the 3 compounds below
1. CCOC(=O)c1ncn2c1CN(C)C(=O)c1cc(C(F)(F)F)ccc1-2
2. CCOP(=O)(CC(=O)Nc1c(C(C)C)cccc1C(C)C)c1ccccc1 (stereo not drawn)
3. Cc1ccc([N+](=O)[O-])cc1N(C)c1nnn[nH]1

Result:
1: 179 to 180 °C; 2: 170 to 173 °C; 3: 201 to 205 °C

For each entry beneath this line, provide reported melting point.
1. Ic1cnn(-c2cccnc2)c1
2. O=C1CCC(Br)C(=O)N1 (stereo not drawn)
3. CCOc1ccccc1N1C(=O)CC(N(O)c2ccccc2)C1=O (stereo not drawn)
4. NNC(=O)C(CC1CC2CCN1CC2)(c1ccccc1)c1ccccc1 (stereo not drawn)
5. CC(C)(C)OC(=O)N1CCC(COc2ccc(N)cc2)CC1
6. Cc1cc(OCc2ccc(-c3ccc(C(F)(F)F)cc3)nc2C)ccc1SCC(=O)O
7. CC(C)C(CO)(CO)[N+](=O)[O-]
8. COC(=O)[C@H]1CC[C@@H](NC(=O)c2cc(-c3ccc(C#N)cc3)nn(C)c2=O)CC1

Result:
["145 to 146 °C", "76 to 83 °C", "174 to 175 °C", "158 to 160 °C", "100 to 101 °C", "168 to 169 °C", "67 to 72 °C", "190 to 192 °C"]

For each of the compounds below, state melting point.
1. CC(O)c1ccc(-c2ccc(N)cc2)cc1 (stereo not drawn)
2. O=C(O)c1ccc2c(c1)CCC(CO)O2 (stereo not drawn)
3. CCS(=O)(=O)Cc1ccc(Cl)c2nc3n(c12)CCCN3c1ccc(Cl)cc1Cl
4. Cc1cc(C)c(NC(=O)N(Cc2ccc3c(c2)Cc2ccccc2-3)C2CCCCC2)c(C)c1

Result:
1: 111 to 115 °C; 2: 150 °C; 3: 278 to 280 °C; 4: 147 to 149 °C
